Experiment: Cmax in Wistar rat plasma at 5 mg/kg, po measured upto 48 hrs
Format: ADME, organism-based
Readout Kind: Cmax
Please provide the amount together with its unit, number first.

**Q:** Fill blank: measured Cmax of the compound `COc1cc([Se]C(F)(F)F)c(OC)cc1CCN.Cl` is ____.
**A:** 18.6 ng/mL

---

Experiment: AUClast in male Sprague-Dawley rat plasma at 1 mg/kg, iv measured upto 8 hrs by LC-MS/MS analysis
Type: ADME, organism-based
Readout Kind: AUC(0-t) at 8 h (ng·h/mL)
Expressed in ng·h/mL, but write only the number.

**Q:** Fill blank: measured AUC(0-t) at 8 h of the compound `COc1cc([Se]C(F)(F)F)c(OC)cc1CCN.Cl` is ____.
**A:** 207

---

Assay: Half life in male Sprague-Dawley rat plasma at 1 mg/kg, iv measured upto 8 hrs by LC-MS/MS analysis
Assay type: ADME, organism-based
Readout Kind: half-life (h)
Expressed in h, but write only the number.

**Q:** Fill blank: measured half-life of the compound `COc1cc([Se]C(F)(F)F)c(OC)cc1CCN.Cl` is ____.
**A:** 1.53

---

Task for the reader: assign each of the following compounds its reported EC50.
Target: 5-hydroxytryptamine receptor 2B (Homo sapiens)
Sequence (P41595 whole entry): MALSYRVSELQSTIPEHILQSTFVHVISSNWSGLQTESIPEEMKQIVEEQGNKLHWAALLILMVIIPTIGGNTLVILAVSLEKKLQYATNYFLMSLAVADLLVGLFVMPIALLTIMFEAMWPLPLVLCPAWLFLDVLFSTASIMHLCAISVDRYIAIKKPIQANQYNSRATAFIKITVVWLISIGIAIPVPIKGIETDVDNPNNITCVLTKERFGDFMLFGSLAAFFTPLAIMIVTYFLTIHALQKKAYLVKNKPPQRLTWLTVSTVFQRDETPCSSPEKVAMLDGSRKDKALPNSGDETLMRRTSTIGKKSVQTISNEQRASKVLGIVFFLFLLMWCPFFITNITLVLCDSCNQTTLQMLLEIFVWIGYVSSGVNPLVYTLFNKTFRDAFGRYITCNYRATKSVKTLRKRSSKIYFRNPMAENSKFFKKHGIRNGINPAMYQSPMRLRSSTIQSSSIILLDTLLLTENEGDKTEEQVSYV
Experiment: Agonist activity at human 5-HT2B receptor expressed in CHO cells assessed as maximal IP2 production measured after 30 mins incubation by HTRF assay relative to control
Assay type: functional, cell-based
Conditions: read-out: EC50
Expressed in nM, but write only the number.

**Q:** Fill blank: measured EC50 of the compound COc1cc(CC(C)N)c(OC)cc1I (racemic) is ____.
**A:** 7

**Q:** Fill blank: measured EC50 of the compound `COc1cc([Se]C(F)(F)F)c(OC)cc1CCN.Cl` is ____.
**A:** 7.3

---

Experiment: AUCinf in beagle dog at 2 mg/kg, po measured upto 24 hrs
Format: ADME, organism-based, Canis lupus familiaris
Conditions: in vivo
Readout Kind: AUC(0-inf) (ng·h/mL)
Expressed in ng·h/mL, but write only the number.

**Q:** Fill blank: measured AUC(0-inf) of the compound `COc1cc([Se]C(F)(F)F)c(OC)cc1CCN.Cl` is ____.
**A:** 2970

---

Test: Brain to plasma ratio in Wistar rat at 5 mg/kg, po measured upto 48 hrs
Format: ADME, organism-based
Details: brain and plasma, read-out: BPR
Readout Kind: Kp at 48 h
Provide a numeric answer; units are not to be included.

**Q:** Fill blank: measured Kp at 48 h of the compound `COc1cc([Se]C(F)(F)F)c(OC)cc1CCN.Cl` is ____.
**A:** 57.9

---

Assay: AUCinf in male Sprague-Dawley rat CSF at 1 mg/kg, iv measured upto 8 hrs by LC-MS/MS analysis
Format: ADME, organism-based, Cerebrospinal fluid
Readout Kind: AUC(0-inf) (ng·h/mL)
Expressed in ng·h/mL, but write only the number.

**Q:** Fill blank: measured AUC(0-inf) of the compound `COc1cc([Se]C(F)(F)F)c(OC)cc1CCN.Cl` is ____.
**A:** 51.4

---

Test system: Mus musculus
Assay: Psychedelic effect in C57BL/6J mouse assessed as number of head-twitch responses by visual observation at 3 mg/kg, po measured for 3 mins at 5 to 25 min
Format: functional
Settings: 0.05 h
Readout Kind: Activity
Provide a numeric answer; units are not to be included.

**Q:** Fill blank: measured Activity of the molecule `COc1cc(SC(F)F)c(OC)cc1CCN.Cl` is ____.
**A:** 33

**Q:** Fill blank: measured Activity of the molecule `COc1cc([Se]C(F)(F)F)c(OC)cc1CCN.Cl` is ____.
**A:** 25

**Q:** Fill blank: measured Activity of the molecule `COc1cc(SSC(C)(C)C)c(OC)cc1CCN.Cl` is ____.
**A:** 0.6

**Q:** Fill blank: measured Activity of the molecule `COc1cc(SC(F)(F)F)c(OC)cc1CCN.Cl` is ____.
**A:** 21

**Q:** Fill blank: measured Activity of the molecule `COc1cc(SSC(F)(F)F)c(OC)cc1CCN.Cl` is ____.
**A:** 1.8

**Q:** Fill blank: measured Activity of the molecule `COc1cc(SCCC(F)F)c(OC)cc1CCN.Cl` is ____.
**A:** 5

**Q:** Fill blank: measured Activity of the molecule `COc1cc(SCC(F)(F)C(F)F)c(OC)cc1CCN.Cl` is ____.
**A:** 3.1

**Q:** Fill blank: measured Activity of the molecule COc1cc([S+]([O-])C(F)F)c(OC)cc1CCN.Cl (centres undefined) is ____.
**A:** 3

**Q:** Fill blank: measured Activity of the molecule `COc1cc(SCCC(F)(F)F)c(OC)cc1CCN.Cl` is ____.
**A:** 3.3

**Q:** Fill blank: measured Activity of the molecule `COc1cc(S(=O)(=O)C(F)F)c(OC)cc1CCN.Cl` is ____.
**A:** 5

**Q:** Fill blank: measured Activity of the molecule COc1cc([S+]([O-])C(F)(F)F)c(OC)cc1CCN.Cl (centres undefined) is ____.
**A:** 17

**Q:** Fill blank: measured Activity of the molecule `COc1cc(S(=O)(=O)C(F)(F)F)c(OC)cc1CCN.Cl` is ____.
**A:** 26

**Q:** Fill blank: measured Activity of the molecule `COc1cc(S(=O)(=O)CF)c(OC)cc1CCN.Cl` is ____.
**A:** 1.7

**Q:** Fill blank: measured Activity of the molecule `COc1cc(SCCCF)c(OC)cc1CCN` is ____.
**A:** 7.4

---

Task for the reader: assign each of the following compounds its reported Ki.
Target: 5-hydroxytryptamine receptor 2A (Homo sapiens)
Sequence (P28223 whole entry): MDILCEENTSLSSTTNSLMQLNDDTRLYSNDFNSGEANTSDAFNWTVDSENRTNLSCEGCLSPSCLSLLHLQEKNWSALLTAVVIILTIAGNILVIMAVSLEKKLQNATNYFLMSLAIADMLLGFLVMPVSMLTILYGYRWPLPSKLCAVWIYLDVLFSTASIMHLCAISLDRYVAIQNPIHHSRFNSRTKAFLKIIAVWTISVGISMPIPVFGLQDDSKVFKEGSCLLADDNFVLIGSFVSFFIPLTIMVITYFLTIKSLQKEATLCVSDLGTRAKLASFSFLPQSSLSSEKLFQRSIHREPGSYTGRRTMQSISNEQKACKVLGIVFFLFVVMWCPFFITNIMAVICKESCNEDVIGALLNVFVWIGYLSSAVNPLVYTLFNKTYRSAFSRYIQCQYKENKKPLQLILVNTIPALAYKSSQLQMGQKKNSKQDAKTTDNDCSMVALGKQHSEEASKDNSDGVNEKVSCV
Test: Displacement of [3H]LSD from human 5-HT2A receptor expressed in HEK293 cell membrane incubated for 90 mins by microbeta liquid scintillation counting method
Type: cell membranes
Conditions: read-out: pKi (converted)
Please provide the amount together with its unit, number first.

**Q:** Fill blank: measured Ki of the compound `COc1cc(OCCCF)c(OC)cc1CCN` is ____.
**A:** 1700 nM

**Q:** Fill blank: measured Ki of the compound `COc1cc(SCC(F)(F)C(F)F)c(OC)cc1CCN.Cl` is ____.
**A:** 38 nM

**Q:** Fill blank: measured Ki of the compound `COc1cc([Se]C(F)(F)F)c(OC)cc1CCN.Cl` is ____.
**A:** 3.02 nM

**Q:** Fill blank: measured Ki of the compound `COc1cc(SC(F)F)c(OC)cc1CCN.Cl` is ____.
**A:** 6.46 nM

**Q:** Fill blank: measured Ki of the compound `COc1cc(S(=O)(=O)CF)c(OC)cc1CCN.Cl` is ____.
**A:** 6.03 nM

---

Experiment: Half life in beagle dog at 2 mg/kg, po measured upto 24 hrs
Format: ADME, organism-based, Canis lupus familiaris
Conditions: in vivo
Readout Kind: half-life (h)
Expressed in h, but write only the number.

**Q:** Fill blank: measured half-life of the compound `COc1cc([Se]C(F)(F)F)c(OC)cc1CCN.Cl` is ____.
**A:** 6.78

---

Readout Kind: pKi
Scale note: pKi = -log10(concentration in M).

**Q:** API: value(readout=pKi, system=UniProtKB P50406) for record `COc1cc([Se]C(F)(F)F)c(OC)cc1CCN.Cl`
Sequence (P50406 whole entry): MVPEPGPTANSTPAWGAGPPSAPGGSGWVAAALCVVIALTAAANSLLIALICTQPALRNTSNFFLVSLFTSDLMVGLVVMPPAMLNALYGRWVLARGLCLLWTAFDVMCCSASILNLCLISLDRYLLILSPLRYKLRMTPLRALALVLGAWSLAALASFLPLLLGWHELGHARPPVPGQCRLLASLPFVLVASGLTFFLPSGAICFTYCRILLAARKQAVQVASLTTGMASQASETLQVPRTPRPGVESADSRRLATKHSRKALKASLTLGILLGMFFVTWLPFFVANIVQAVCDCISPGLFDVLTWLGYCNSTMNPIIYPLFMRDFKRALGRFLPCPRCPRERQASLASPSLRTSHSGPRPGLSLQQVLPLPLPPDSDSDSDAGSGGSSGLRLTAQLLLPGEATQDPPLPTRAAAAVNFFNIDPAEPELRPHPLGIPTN
**A:** 5.89

---

Test: AUClast in Wistar rat plasma at 1 mg/kg, iv measured upto 48 hrs
Assay type: ADME, organism-based
Readout Kind: AUC(0-t) at 48 h (ng·h/mL)
Expressed in ng·h/mL, but write only the number.

**Q:** Fill blank: measured AUC(0-t) at 48 h of the compound `COc1cc([Se]C(F)(F)F)c(OC)cc1CCN.Cl` is ____.
**A:** 42.2

---

Test: MRTinf in beagle dog at 0.4 mg/kg, iv measured upto 24 hrs
Type: ADME, organism-based, Canis lupus familiaris
Conditions: in vivo
Readout Kind: MRT inf (h)
Expressed in h, but write only the number.

**Q:** Fill blank: measured MRT inf of the compound `COc1cc([Se]C(F)(F)F)c(OC)cc1CCN.Cl` is ____.
**A:** 5.58

---

Assay: Metabolic stability in dog liver microsomes assessed as half life at 1 uM incubated for 120 mins in presence of NADPH
Type: ADME, Canis lupus familiaris, Microsome
Readout Kind: half-life at 1 µM

**Q:** Fill blank: measured half-life at 1 µM of the compound `COc1cc([Se]C(F)(F)F)c(OC)cc1CCN.Cl` is ____.
**A:** > 2 h

---

Test: Brain to plasma ratio in male Sprague-Dawley rat at 1 mg/kg, iv measured upto 8 hrs by LC-MS/MS analysis
Type: ADME, organism-based
Settings: brain and plasma, read-out: BPR
Readout Kind: Kp at 8 h
Provide a numeric answer; units are not to be included.

**Q:** Fill blank: measured Kp at 8 h of the compound `COc1cc([Se]C(F)(F)F)c(OC)cc1CCN.Cl` is ____.
**A:** 15.6
